I'd appreciate it if you could supply IC50 values for the items below.
- target of assay: IRE1α (Homo sapiens (Human), UniProt O75460, D688N)
- Sequence (O75460 547-977 D688N): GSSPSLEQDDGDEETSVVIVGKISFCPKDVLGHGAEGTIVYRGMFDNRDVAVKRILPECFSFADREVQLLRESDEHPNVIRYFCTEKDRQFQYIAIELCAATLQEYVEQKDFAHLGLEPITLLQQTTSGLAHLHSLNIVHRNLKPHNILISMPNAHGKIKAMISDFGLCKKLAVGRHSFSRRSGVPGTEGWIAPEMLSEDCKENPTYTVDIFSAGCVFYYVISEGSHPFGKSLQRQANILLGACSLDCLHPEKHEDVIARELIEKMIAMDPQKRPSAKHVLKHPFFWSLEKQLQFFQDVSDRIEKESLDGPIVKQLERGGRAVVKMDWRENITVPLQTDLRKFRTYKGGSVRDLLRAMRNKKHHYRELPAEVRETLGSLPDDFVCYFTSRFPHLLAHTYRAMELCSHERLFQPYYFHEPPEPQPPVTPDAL
- experimental protocol: IRE1α TR-FRET competition binding assay (IRE1α HTRF)
- condition notes: TR-FRET competition binding to kinase domain of IRE1α

Here's what some known entries look like.
# mol, IC50
data = [
    ("CC(C)n1c(=O)c(-c2ccc(NS(=O)(=O)CCC(F)(F)F)c(F)c2)cc2cnc(NC3CCC4(CC3)CN(CCF)C4)nc21", "0.3 nM"),
    ("CCn1c(=O)c(-c2cc(F)c(NS(=O)(=O)Cc3ccc(C#N)cc3)c(F)c2F)cc2cnc(N[C@@H]3CNC[C@@H](F)C3)nc21", "0.37 nM"),
]

Next:
Recorded IC50 for "CC(C)n1c(=O)c(-c2ccc(NS(=O)(=O)CCC(F)(F)F)cn2)cc2cnc(N[C@H]3CC[C@H](N(C)C)CC3)nc21" , please?
0.2 nM

----------
- target of assay: IRE1α (Homo sapiens (Human), UniProt O75460, D688N)
- experimental protocol: IRE1α TR-FRET competition binding assay (IRE1α HTRF)
- condition notes: TR-FRET competition binding to kinase domain of IRE1α
reported endpoint: IC50 (nM)
Give bare numbers, in nM.

Record excerpt, results attached:
# compound, IC50 [nM]
records = [
    ("CC(C)n1c(=O)c(-c2ccc(NS(=O)(=O)CCC3CC3(F)F)c(F)c2)nc2cnc(N[C@H]3CC[C@H](N(C)C)CC3)nc21 (stereo partly drawn) [Example 259]", 0.2),
    ("COCCN(C)[C@H]1CC[C@H](Nc2ncc3cc(-c4ccc(NS(=O)(=O)CCC(F)(F)F)nc4)c(=O)n(C(C)C)c3n2)CC1 [Compound 126]", 0.24),
    ("Cn1c(=O)c(-c2cc(F)c(NS(=O)(=O)Cc3ccccc3)c3ccccc23)cc2cnc(N[C@H]3CCCNC3)nc21 [Compound 6]", 0.89),
    ("CC(C)n1c(=O)c(-c2ccc(NS(=O)(=O)Cc3ccc(F)cc3)c(F)c2)nc2cnc(N[C@H]3CC[C@H](N(C)CCF)CC3)nc21 [Compound 176]", 0.14),
    ("CC(C)n1c(=O)c(-c2ccc(NS(=O)(=O)c3ccccc3Cl)nc2)cc2cnc(N[C@@H]3CNC[C@@H](F)C3)nc21 [Compound 147]", 0.27),
]

Query: IC50; subject: CC(C)n1c(=O)c(-c2ccc(NS(=O)(=O)CC3CC(F)(F)C3)c(F)c2)nc2cnc(N[C@H]3CC[C@H](N(C)C)CC3)nc21 [Example 279]
0.3

----------
I'd appreciate it if you could supply pIC50 values for the items below.
- target of assay: IRE1α (Homo sapiens (Human), UniProt O75460, D688N)
- experimental protocol: IRE1α TR-FRET competition binding assay (IRE1α HTRF)
- condition notes: TR-FRET competition binding to kinase domain of IRE1α
One number for each entry, as −log10 of the molar value.

Please report pIC50 for every entry that follows.
1. CC(C)n1c(=O)c(-c2ccc(NS(=O)(=O)CCC(F)(F)F)c(F)c2)cc2cnc(N[C@@H]3CC[C@@H](N(C)C)[C@H](O)C3)nc21 [Example 227]
2. CC(C)n1c(=O)c(-c2ccc(NS(=O)(=O)c3ccccc3)nc2)cc2cnc(N[C@H]3CC[C@H](N(C)C)CC3)nc21 [Compound 106]
3. Cn1c(=O)c(-c2cccc3c(NS(=O)(=O)CCC(F)(F)F)c(F)ccc23)cc2cnc(N[C@H]3CCCNC3)nc21 [Compound 4]

1: 9.52; 2: 9.82; 3: 8.30

Look up pIC50 for the entries below, preserving their order.
1. CC(C)n1c(=O)c(-c2cc(F)c(NS(=O)(=O)Cc3ccc(F)cc3)cc2F)cc2cnc(N[C@H]3CC[C@H](N(C)C)CC3)nc21 [Compound 127]
2. Cc1cc(NS(=O)(=O)CCC(F)(F)F)ncc1-c1nc2cnc(N[C@H]3CC[C@H](N(C)C)CC3)nc2n(C(C)C)c1=O [Compound 186]
3. CC(C)Nc1ncc2cc(-c3cc(F)c(NS(=O)(=O)CCC(F)(F)F)c(F)c3F)c(=O)n(C(C)C)c2n1 [Compound 21]

9.96
9.02
7.80

----------
- target of assay: IRE1α (Homo sapiens (Human), UniProt O75460, D688N)
- experimental protocol: IRE1α TR-FRET competition binding assay (IRE1α HTRF)
- condition notes: TR-FRET competition binding to kinase domain of IRE1α
Where a name gives a salt, the structure may show the parent alone.
Please assign NO whenever IC50 is at or above 0.2 nM, and YES whenever it is below.

Observe how each entry below is paired with its result.
# compound, target of assay, cat
measured = [
    ("CC(C)n1c(=O)c(-c2ccc(NS(=O)(=O)CCC(F)(F)F)nc2)cc2cnc(N[C@@H]3CNC[C@@H](F)C3)nc21 [Example 216]", "IRE1α (Homo sapiens (Human), UniProt O75460, D688N)", "NO"),
    ("CC(C)n1c(=O)c(-c2cc(F)c(NS(=O)(=O)Cc3ccccc3)c(F)c2F)cc2cnc(N[C@@H]3CNC[C@@](C)(F)C3)nc21 [Compound 27]", "IRE1α (Homo sapiens (Human), UniProt O75460, D688N)", "NO"),
    ("Cc1ccc(CS(=O)(=O)Nc2ccc(-c3nc4cnc(N[C@@H]5CNC[C@@H](F)C5)nc4n(C(C)C)c3=O)cc2F)c(C#N)c1 [Compound 166]", "IRE1α (Homo sapiens (Human), UniProt O75460, D688N)", "YES"),
    ("CCC(F)(F)CS(=O)(=O)Nc1ccc(-c2nc3cnc(N[C@H]4CC[C@H](N(C)C)CC4)nc3n(C(C)C)c2=O)cc1F [Compound 165, hydrochloride]", "IRE1α (Homo sapiens (Human), UniProt O75460, D688N)", "YES"),
    ("CC(C)n1c(=O)c(-c2ccc(NS(=O)(=O)CC3CCCC3)c(F)c2)cc2cnc(N[C@H]3CC[C@H](N(C)C)CC3)nc21 [Compound 109]", "IRE1α (Homo sapiens (Human), UniProt O75460, D688N)", "YES"),
]

# ---- query compound ----
Below 0.2 nM on IC50? Entry CC(C)n1c(=O)c(-c2ccc(NS(=O)(=O)c3ccccc3Cl)nc2)cc2cnc(N[C@H]3CC[C@H](N(C)C)CC3)nc21 [Compound 105]
YES

----------
Kindly state pIC50 for each of the entries shown.
- target of assay: IRE1α (Homo sapiens (Human), UniProt O75460, D688N)
- experimental protocol: IRE1α TR-FRET competition binding assay (IRE1α HTRF)
- condition notes: TR-FRET competition binding to kinase domain of IRE1α
Structures can show the parent of a compound that is named as a salt.
Numbers only, as −log10 of the molar value.

These recorded examples may help you get a feel for the data.
# compound, pIC50
measured = [
    ("CC(C)n1c(=O)c(-c2cc(F)c(NS(=O)(=O)Cc3ccc(F)cc3)cc2F)nc2cnc(N[C@H]3CC[C@H](N(C)C)CC3)nc21 [Compound 174, hydrochloride]", 9.59),
    ("CC(C)n1c(=O)c(-c2ccc(NS(=O)(=O)c3ccccc3C#N)c(F)c2)nc2cnc(N[C@H]3CC[C@H](N(C)C)CC3)nc21 [Compound 190]", 9.74),
]

# returns recorded pIC50 (system: IRE1α (Homo sapiens (Human), UniProt O75460, D688N)) for CCCS(=O)(=O)Nc1ccc(-c2nc3cnc(N[C@@H]4CNC[C@H](CF)C4)nc3n(C(C)C)c2=O)cc1F [Compound 79]
8.82

----------
- target of assay: IRE1α (Homo sapiens (Human), UniProt O75460, D688N)
- experimental protocol: IRE1α TR-FRET competition binding assay (IRE1α HTRF)
- condition notes: TR-FRET competition binding to kinase domain of IRE1α
Counter-ions that a name gives are not always drawn.
reported endpoint: pIC50
Numbers only, as −log10 of the molar value.

Recorded pIC50, per entry:
# molecule, observed value
rows = [
    ("CC(C)n1c(=O)c(-c2ccc(NS(=O)(=O)CC3Cc4ccccc4C3)c(F)c2)nc2cnc(N[C@H]3CC[C@H](N(C)C)CC3)nc21", 10.00),
    ("CC(C)n1c(=O)c(-c2ccc(NS(=O)(=O)Cc3ccccc3F)nc2)nc2cnc(N[C@@H]3CNC[C@@H](F)C3)nc21", 9.52),
    ("CCC(C)n1c(=O)c(-c2ccc(NS(=O)(=O)Cc3ccccc3F)c(F)c2)cc2cnc(N[C@@H]3CNC[C@@H](F)C3)nc21 (single isomer, unassigned) [Compound 202B, hydrochloride]", 9.59),
    ("CC(C)n1c(=O)c(-c2ccc(NS(=O)(=O)CCC(F)(F)F)c(F)c2)cc2cnc(NC3CCC4(CC3)CN(C)C4)nc21", 9.70),
]

Field: pIC50. Fill in for each record below.
1. CC(C)n1c(=O)c(-c2cc(F)c(NS(=O)(=O)c3ccccc3Cl)c(F)c2F)cc2cnc(N[C@@H]3CNC[C@@H](F)C3)nc21 [Compound 61, hydrochloride]
2. CC(C)n1c(=O)c(-c2ccc(NS(=O)(=O)Cc3ccccc3)c(F)c2)nc2cnc(N[C@H]3CC[C@H](N(C)C)[C@@H](F)C3)nc21 (stereo in doubt) [Compound 192A]
3. CC(C)n1c(=O)c(-c2ccc(NS(=O)(=O)Cc3ccccc3)nc2)nc2cnc(N[C@@H]3CNC[C@@H](F)C3)nc21
4. CC(C)n1c(=O)c(-c2ccc(NS(=O)(=O)CCC(F)(F)F)c(F)c2)cc2cnc(N[C@H]3CC[C@H](N(C)C)CC3)nc21
5. CC(C)n1c(=O)c(-c2ccc(NS(=O)(=O)CC3CC(F)(F)C3)c(F)c2)cc2cnc(N[C@H]3CC[C@H](N(C)CCF)CC3)nc21

1. 9.51
2. 9.96
3. 9.30
4. 9.89
5. 9.74

State the recorded pIC50 for every item in the following list.
1. CC(C)n1c(=O)c(-c2cnc(NS(=O)(=O)CCC(F)(F)F)nc2)cc2cnc(N[C@H]3CC[C@H](N(C)C)CC3)nc21
2. CC(C)n1c(=O)c(-c2cc(F)c(NS(=O)(=O)Cc3ccc(Cl)cc3)c(F)c2)nc2cnc(N[C@H]3CC[C@H](N(C)C)CC3)nc21
3. CC(C)n1c(=O)c(-c2ccc(NS(=O)(=O)Cc3ccc(F)cc3)c(F)c2)nc2cnc(N[C@H]3CC[C@H](N(C)C)CC3)nc21
4. Cc1ccc(CS(=O)(=O)Nc2c(F)cc(-c3nc4cnc(N[C@H]5CC[C@H](N(C)C)CC5)nc4n(C(C)C)c3=O)cc2F)cc1
5. CC(C)n1c(=O)c(-c2ccc(NS(=O)(=O)CCC(F)(F)F)c(F)c2)cc2cnc(NC3CCC(N(C)C)C(F)C3)nc21 (single isomer, unassigned) [Compound 110B]
6. CC(C)n1c(=O)c(-c2cc(F)c(NS(=O)(=O)CCC(C)(F)F)c(F)c2)nc2cnc(N[C@H]3CC[C@H](N(C)C)CC3)nc21

[8.89, 9.10, 9.60, 9.70, 9.15, 9.70]

Please report pIC50 for every entry that follows.
1. CC(C)n1c(=O)c(-c2ccc(NS(=O)(=O)CCC(F)(F)F)c(F)c2)cc2cnc(NC3CCC(N(C)C)C(O)C3)nc21 (stereo not drawn)
2. CC(C)n1c(=O)c(-c2cc(F)c(NS(=O)(=O)c3ccccc3)c(F)c2F)cc2cnc(N[C@@H]3CNC[C@@H](F)C3)nc21
3. CCCS(=O)(=O)Nc1c(F)cc(-c2nc3cnc(N[C@H]4CC[C@H](N(C)C)CC4)nc3n(C(C)C)c2=O)cc1F
4. COCCN(C)C1CCC(Nc2ncc3cc(-c4cc(F)c(NS(=O)(=O)Cc5ccccc5)c(F)c4F)c(=O)n(C(C)C)c3n2)CC1 (single isomer, unassigned) [Compound 102B]
5. CC(C)n1c(=O)c(-c2ccc(NS(=O)(=O)CCN3CC(F)(F)C3)c(F)c2)nc2cnc(N[C@H]3CC[C@H](N(C)C)CC3)nc21
6. CC(C)n1c(=O)c(-c2ccc(NS(=O)(=O)Cc3ccccc3)c(F)c2F)cc2cnc(N[C@@H]3CNC[C@@H](F)C3)nc21
7. CC(C)n1c(=O)c(-c2ccc(NS(=O)(=O)Cc3ccccc3F)nc2)cc2cnc(N[C@@H]3CNC[C@@H](F)C3)nc21
8. CC(C)n1c(=O)c(-c2ccc(NS(=O)(=O)CCC(F)(F)F)c(F)c2)cc2cnc(NC3CCNCC3)nc21

[9.52, 9.47, 10.00, 7.18, 9.06, 9.55, 9.62, 8.06]

Form entry - test system: IRE1α (Homo sapiens (Human), UniProt O75460, D688N); read-out: pIC50; molecule: CC1CC1C(=O)Nc1c(F)cc(-c2cc3cnc(N[C@H]4CC[C@H](N(C)C)CC4)nc3n(C(C)C)c2=O)c(F)c1F (stereo partly drawn)
8.24

Numbers sourced from patent US12344603B2.
